Tested on: SN12C renal
Assay: NCI tumour cell line growth inhibition, 48 h
Decision: TGI compared against 30 µM; not below it gives Condition met, below it gives Condition not met.

INSERT INTO measurements (molecule, group) VALUES
  ('COC(=O)[C@@H]1CCCN1C(=O)[C@@H]1CCCN1C(=O)[C@@H](Cc1c[nH]c2ccccc12)NC(=S)Nc1cc(C(F)(F)F)cc(C(F)(F)F)c1', 'Condition met'),
  ('CN(/N=C/c1cccs1)c1ccc([N+](=O)[O-])cc1[N+](=O)[O-]', 'Condition met');

Answer whether TGI of CC(=O)Oc1ccccc1C(=O)C1c2cccc(O)c2C(=O)c2c(O)cccc21 is greater than or equal to 30 µM. Condition not met

Input CCOC(=O)CN1CCSC1=NC#N Condition met

Input CSCC[C@H]1C(=O)N=C(N)N1C(=O)OCc1ccccc1 Condition met

Origin of measurements: PubChem BioAssay (NCI)
